# test: Cycloheximide Counterscreen for Small Molecule Inhibitors of Shiga Toxin; further: read at 38.3 µM for the half of the compounds with a filed dose; 0% is about no effect
# recorded conditions: cell reporter, cycloheximide protein synthesis inhibition counterscreen; stronger effect = higher value
In all, about 300,000 compounds went through this assay and about 37,000 (12%) were called active. What follows is part of a selection rich in actives, with near analogues and random picks from the rest.
// reported max response per item
Supply the numeric figure in %, leaving out any unit text.

Completed entries (count: 4):
INSERT INTO results (compound, observed_result) VALUES
  ('CC/C(=N\NC(=O)c1ccccc1O)c1c(O)n(Cc2ccccc2)c(=O)[nH]c1=O', 23),
  ('N#Cc1c(-c2cccs2)nc(SCC(=O)c2ccc(Br)cc2)[nH]c1=O', 2.73),
  ('COc1ccc(CNC(=O)C(C)NCc2ccccc2Cl)cc1 (stereo not drawn)', -2.73),
  ('O=C1CCC(=O)N(O)CCCCCNC(=O)CCC(=O)N(O)CCCCCNC(=O)CCC(=O)N(O)CCCCCN1', -3.2);

So what's the measured max response for this one? `CCCC(=O)N=c1sc2cccc(F)c2n1C` -3.69

Entry under review: `Cn1c(=NC(=O)C2CC2)sc2cc(F)cc(F)c21` . Reported max response? -0.185

Given the entry `Cc1ccc(-c2nc(CSCC(=O)NC3CCN(Cc4ccccc4)CC3)c(C)o2)cc1` , report its measured max response. -6.12
